koff values, listed per item
# SYSTEM_NAME: T1, human transferrin receptor (recombinant, for surface plasmon resonance) (human, UniProt P02786 89-760)
# T1 construct: also called huTfR; human transferrin receptor-biotinylated
# PROTOCOL_NOTES: SPR 25C
QUANTITY_MEASURED: koff (s⁻¹)

>  <BINDER>
2/99 VH16/VL2 (antibody, V domains shown) VH: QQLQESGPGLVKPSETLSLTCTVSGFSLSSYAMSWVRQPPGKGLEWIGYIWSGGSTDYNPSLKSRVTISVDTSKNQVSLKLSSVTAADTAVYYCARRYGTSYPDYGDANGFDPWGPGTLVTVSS VL: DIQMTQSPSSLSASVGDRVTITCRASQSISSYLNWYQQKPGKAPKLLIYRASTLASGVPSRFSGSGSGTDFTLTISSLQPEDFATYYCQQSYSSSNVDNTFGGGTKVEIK

>  <QUANTITY_MEASURED>
koff

>  <RECORDED_NUMBER>
0.00197

$$$$
>  <BINDER>
2/99 VH18/VL10 (antibody, V domains shown) VH: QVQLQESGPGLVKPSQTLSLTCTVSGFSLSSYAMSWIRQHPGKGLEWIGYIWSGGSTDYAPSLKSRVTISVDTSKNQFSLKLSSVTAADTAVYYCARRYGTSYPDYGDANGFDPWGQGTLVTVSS VL: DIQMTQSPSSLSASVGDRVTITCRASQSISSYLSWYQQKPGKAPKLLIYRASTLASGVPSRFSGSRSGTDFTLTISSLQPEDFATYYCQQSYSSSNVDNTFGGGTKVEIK

>  <QUANTITY_MEASURED>
koff

>  <RECORDED_NUMBER>
0.00746

$$$$
